Target: human TREM2 (Homo sapiens)
Construct: expressed in transfected cells; host or cells: HEK293T (HEK293T-hTREM2 cells)
Assay: TREM2 agonist potency by cellular phosphorylation of Spleen Tyrosine Kinase (Syk), AlphaLisa, HEK293T-hTREM2 cells
Format: cell-based
Conditions: hTREM2 EC50 Data (HEK293 Cells); Syk phosphorylation, AlphaLisa; read-out: hTREM2 EC50
endpoint: EC50

Recorded EC50, per entry:
- compound: "COc1nc2c(-c3ccc(C(F)(F)F)cc3F)nc([C@H]3CCO[C@@H](c4ccc(=O)n(C5CC5)c4)C3)nc2nc1C"
  result: "< 0.1 µM"
- compound: "Cc1nc2nc([C@H]3CCO[C@H](c4ccc(=O)n(C)c4)C3)cc(C34CC(C(F)(F)F)(C3)C4)c2nc1C"
  result: "0.1 to 0.5 µM"
- compound: "C[C@@H]1CN(c2nc(-c3ccc(F)cc3F)c3sc(N(C)C)nc3n2)C[C@H](c2ccc(=O)n(C)c2)O1"
  result: "< 0.1 µM"
- compound: "Cc1nc2nc([C@H]3CCO[C@@H](c4ccc(=O)[nH]c4)C3)nc(C34CC(C(F)(F)F)(C3)C4)c2nc1C(F)(F)F"
  result: "< 0.1 µM"

Please look up its EC50: "Cc1nc2nc([C@H]3CCO[C@@H](c4ccc(=O)n(C)c4)C3)nc(C34CC(C(F)(F)F)(C3)C4)c2cc1C(F)(F)F" < 0.1 µM

Can you check "Cc1nc2nc(N3C[C@@H](C)O[C@@H](c4ccc(=O)[nH]c4)C3)nc(C34CC(C(F)(F)F)(C3)C4)c2nc1C1COC1" next? < 0.1 µM

* * *

Molecular target: human TREM2 (Homo sapiens, UniProt Q9NZC2)
Construct: expressed in transfected cells; host or cells: HEK293T (HEK293T-hTREM2 cells)
Sequence (Q9NZC2 19-230): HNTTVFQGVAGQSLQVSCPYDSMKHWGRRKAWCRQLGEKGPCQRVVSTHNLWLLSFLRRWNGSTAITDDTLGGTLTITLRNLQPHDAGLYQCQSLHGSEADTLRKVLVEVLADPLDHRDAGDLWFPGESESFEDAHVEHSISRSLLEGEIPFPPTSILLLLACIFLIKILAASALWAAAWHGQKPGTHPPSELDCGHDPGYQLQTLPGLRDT
Sequence (O43914 22-113 partner): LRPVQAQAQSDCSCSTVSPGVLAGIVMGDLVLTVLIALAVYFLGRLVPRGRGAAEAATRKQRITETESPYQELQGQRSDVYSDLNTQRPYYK
Test: TREM2 agonist potency by cellular phosphorylation of Spleen Tyrosine Kinase (Syk), AlphaLisa, HEK293T-hTREM2 cells
Assay type: cell-based
Conditions: hTREM2 EC50 Data (HEK293 Cells); Syk phosphorylation, AlphaLisa; read-out: hTREM2 EC50
endpoint: EC50

Reference set (5 entries):
- compound: "Cc1nc2nc([C@H]3CCO[C@@H](c4cnc(=O)n(C)c4)C3)nc(C34CC(C(F)(F)F)(C3)C4)c2nc1C"
  EC50: "< 100 nM"
- compound: "[2H]C([2H])([2H])c1nc2nc(N3C[C@@H](C)O[C@@H](c4ccc(=O)n(C5CC5)c4)C3)nc(C34CC(C(F)(F)F)(C3)C4)c2nc1C([2H])([2H])[2H]"
  EC50: "< 100 nM"
- compound: "Cc1nc2nc([C@H]3CCO[C@@H](c4ccc(=O)n(C56CC(C5)C6)c4)C3)nc(C34CC(C(F)(F)F)(C3)C4)c2nc1C"
  EC50: "< 100 nM"
- compound: "Cc1nc2c(C34CC(C(F)(F)F)(C3)C4)nc([C@H]3CCO[C@@H](c4ccc(=O)n(N)c4)C3)nc2c(=O)n1C (racemic)"
  EC50: "100 to 500 nM"
- compound: "Cc1nc2nc([C@H]3C[C@@H](C)O[C@@H](c4ccc(=O)n(C5CC5)c4)C3)nc(C34CC(C(F)(F)F)(C3)C4)c2nc1C"
  EC50: "< 100 nM"

What value of EC50 on human TREM2 (Homo sapiens, UniProt Q9NZC2) does "Cc1nc2nc([C@@H]3CCO[C@H](c4ccc(=O)n(C)c4)C3)cc(C34CC(C(F)(F)F)(C3)C4)c2nc1C" have? < 100 nM

Recorded values, source patent US20260356841A1.
